- measured on: Metabotropic glutamate receptor 4 (Homo sapiens, UniProt Q14833)
- Sequence (Q14833 whole entry): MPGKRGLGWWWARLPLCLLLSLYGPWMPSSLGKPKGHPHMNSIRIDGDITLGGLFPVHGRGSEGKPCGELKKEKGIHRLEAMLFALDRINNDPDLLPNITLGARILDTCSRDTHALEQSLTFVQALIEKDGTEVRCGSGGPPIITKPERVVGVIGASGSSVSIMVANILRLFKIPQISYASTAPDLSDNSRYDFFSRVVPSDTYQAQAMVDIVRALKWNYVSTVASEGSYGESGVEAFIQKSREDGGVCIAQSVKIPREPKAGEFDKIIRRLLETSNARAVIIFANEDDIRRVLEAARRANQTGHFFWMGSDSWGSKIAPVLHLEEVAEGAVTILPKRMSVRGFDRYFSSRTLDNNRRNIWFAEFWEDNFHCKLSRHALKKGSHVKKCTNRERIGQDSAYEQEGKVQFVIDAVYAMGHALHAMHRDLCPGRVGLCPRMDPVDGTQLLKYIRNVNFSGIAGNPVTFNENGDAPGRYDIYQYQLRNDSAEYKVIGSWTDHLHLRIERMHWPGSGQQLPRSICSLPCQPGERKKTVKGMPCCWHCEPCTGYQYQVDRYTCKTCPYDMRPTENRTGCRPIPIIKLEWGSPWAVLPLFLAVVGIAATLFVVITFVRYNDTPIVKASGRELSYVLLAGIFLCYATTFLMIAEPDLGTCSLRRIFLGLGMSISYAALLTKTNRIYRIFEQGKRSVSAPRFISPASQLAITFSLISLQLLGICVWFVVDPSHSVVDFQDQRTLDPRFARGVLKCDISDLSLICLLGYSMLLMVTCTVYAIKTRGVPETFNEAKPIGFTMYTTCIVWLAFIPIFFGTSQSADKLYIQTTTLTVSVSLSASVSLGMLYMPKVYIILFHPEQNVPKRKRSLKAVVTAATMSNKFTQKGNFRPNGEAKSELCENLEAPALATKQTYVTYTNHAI
- assay method text: Receptor Activity Assay: The disclosed compounds and compositions can be evaluated for their ability to act as a potentiator of metabotropic glutamate receptor activity, in particular mGluR4 activity, by any suitable known methodology known in the art. For example, Chinese Hamster Ovary (CHO) cells transfected with human mGluR4 or HEK cells co-transfected with rat mGluR4 and the G-protein regulated Inwardly Rectifying Potassium channel (GIRK) were plated in clear bottom assay plates for assay in a Hamamatsu FDSS Fluorometric Plate Reader. The cells were loaded with either a Ca2+-sensitive fluorescent dye or the thallium responsive dye and the plates were washed and placed into a suitable kinetic plate reader. For human mGluR4 assays, a fluorescence baseline was established for 3-5 seconds, the disclosed compounds were then added to the cells, and the response in cells was measured.
measurement kind: EC50 (µM)

Cc1nc(NC(=O)c2ccccn2)sc1S(=O)(=O)C(C)c1ccccc1F (centres undefined) : 4.78
Cc1nc(NC(=O)c2ccccn2)sc1S(=O)(=O)Cc1ccc(F)cc1F : 1.01
Cc1nc(NC(=O)c2ccccn2)sc1S(=O)(=O)Cc1cccc(Cl)c1F : 0.535
CC(C)c1nc(NC(=O)c2ccccn2)sc1S(=O)(=O)Cc1ccc(F)cc1F : 3.11
Cc1nc(NC(=O)c2ccccn2)sc1S(=O)(=O)Cc1ccc(Cl)cc1 : 0.486

1. O=C(Nc1ncc(SCc2ccc(Cl)cc2Cl)s1)c1ccccn1
2. CC(C)c1nc(NC(=O)c2ccccn2)sc1S(=O)(=O)C(C)c1ccccc1F (centres undefined)
Exam item: Among 1 and 2 , whose measured EC50 is the smaller figure? Provide the label of your selected option as the answer.
Marked response: 1
(1: 5 µM, 2: 9.57 µM)

a. CC(C)c1nc(NC(=O)c2ccccn2)sc1S(=O)(=O)C(C)c1ccccc1Cl (centres undefined)
b. Cc1nc(NC(=O)c2ccccn2)sc1S(=O)(=O)Cc1cc(F)c(F)cc1F
Exam item: Among a and b , whose measured EC50 is the smaller figure? Provide the label of your selected option as the answer.
Marked response: b
(b: 0.322 µM, a: 3.75 µM)

---

- measured on: UniProt:Q14833
- assay method text: Receptor Activity Assay: The disclosed compounds and compositions can be evaluated for their ability to act as a potentiator of metabotropic glutamate receptor activity, in particular mGluR4 activity, by any suitable known methodology known in the art. For example, Chinese Hamster Ovary (CHO) cells transfected with human mGluR4 or HEK cells co-transfected with rat mGluR4 and the G-protein regulated Inwardly Rectifying Potassium channel (GIRK) were plated in clear bottom assay plates for assay in a Hamamatsu FDSS Fluorometric Plate Reader. The cells were loaded with either a Ca2+-sensitive fluorescent dye or the thallium responsive dye and the plates were washed and placed into a suitable kinetic plate reader. For human mGluR4 assays, a fluorescence baseline was established for 3-5 seconds, the disclosed compounds were then added to the cells, and the response in cells was measured.
measurement kind: EC50 (nM)

Cc1ccc(CS(=O)(=O)c2sc(NC(=O)c3ccccn3)nc2C)cc1 : 445
O=C(Nc1ncc(S(=O)(=O)Cc2ccc(Cl)cc2F)s1)c1ccccn1 : 44.1
CCc1nc(NC(=O)c2ccccn2)sc1S(=O)(=O)Cc1ccc(Cl)cc1F : 294
Cc1nc(NC(=O)c2ccccn2)sc1S(=O)(=O)Cc1ccccc1F : 1330
O=C(Nc1nc(C(F)(F)F)c(S(=O)(=O)Cc2c(F)cccc2F)s1)c1ccccn1 : 1060

A. Cc1nc(NC(=O)c2ccccn2)sc1S(=O)(=O)Cc1ccc(C(C)C)cc1
B. O=C(Nc1ncc(SCc2ccc(Cl)cc2F)s1)c1ccccn1
C. CCc1nc(NC(=O)c2ccccn2)sc1S(=O)(=O)Cc1cccc(Cl)c1F
D. Cc1nc(NC(=O)c2ccccn2)sc1S(=O)(=O)Cc1cccc(C(F)(F)F)c1
Exam item: Write the entries in order, lowest recorded EC50 first. Answer with the labels in sequence, matching the requested order.
Marked response: C, A, D, B
(C: 488 nM, A: 1050 nM, D: 2460 nM, B: 8240 nM)

---

- measured on: Metabotropic glutamate receptor 4 (Homo sapiens)
- assay method text: Receptor Activity Assay: The disclosed compounds and compositions can be evaluated for their ability to act as a potentiator of metabotropic glutamate receptor activity, in particular mGluR4 activity, by any suitable known methodology known in the art. For example, Chinese Hamster Ovary (CHO) cells transfected with human mGluR4 or HEK cells co-transfected with rat mGluR4 and the G-protein regulated Inwardly Rectifying Potassium channel (GIRK) were plated in clear bottom assay plates for assay in a Hamamatsu FDSS Fluorometric Plate Reader. The cells were loaded with either a Ca2+-sensitive fluorescent dye or the thallium responsive dye and the plates were washed and placed into a suitable kinetic plate reader. For human mGluR4 assays, a fluorescence baseline was established for 3-5 seconds, the disclosed compounds were then added to the cells, and the response in cells was measured.
measurement kind: EC50 (nM)

Below are worked cases with known answers.
Cc1nc(NC(=O)c2ccccn2)sc1S(=O)(=O)Cc1cccc(Cl)c1 : 1390
CCc1nc(NC(=O)c2ccccn2)sc1S(=O)(=O)Cc1c(F)cccc1Cl : 141
Cc1nc(NC(=O)c2ccccn2)sc1S(=O)(=O)Cc1c(Cl)cccc1Cl : 117

A. CC(C)c1nc(NC(=O)c2ccccn2)sc1S(=O)(=O)Cc1ccccc1Cl
B. Cc1nc(NC(=O)c2ccccn2)sc1S(=O)(=O)Cc1ccccc1C(F)(F)F
Exam item: Which value of EC50 is numerically greater: that of A or that of B ? Provide the label of your selected option as the answer.
Marked response: A

---

- measured on: UniProt:Q14833
- assay method text: Receptor Activity Assay: The disclosed compounds and compositions can be evaluated for their ability to act as a potentiator of metabotropic glutamate receptor activity, in particular mGluR4 activity, by any suitable known methodology known in the art. For example, Chinese Hamster Ovary (CHO) cells transfected with human mGluR4 or HEK cells co-transfected with rat mGluR4 and the G-protein regulated Inwardly Rectifying Potassium channel (GIRK) were plated in clear bottom assay plates for assay in a Hamamatsu FDSS Fluorometric Plate Reader. The cells were loaded with either a Ca2+-sensitive fluorescent dye or the thallium responsive dye and the plates were washed and placed into a suitable kinetic plate reader. For human mGluR4 assays, a fluorescence baseline was established for 3-5 seconds, the disclosed compounds were then added to the cells, and the response in cells was measured.
- Type: functional, cell-based, HEK293
measurement kind: EC50 (nM)

P. Cc1nc(NC(=O)c2ccccn2)sc1S(=O)(=O)Cc1c(F)cccc1Cl
Q. CCc1nc(NC(=O)c2ccccn2)sc1S(=O)(=O)Cc1c(Cl)cccc1Cl
Exam item: Which value of EC50 is numerically greater: that of P or that of Q ? Provide the label of your selected option as the answer.
Marked response: P

I. O=C(Nc1ncc(S(=O)(=O)Cc2ccc(Cl)cc2Cl)s1)c1ccccn1
II. O=C(Nc1nc(C2CC2)c(S(=O)(=O)Cc2ccc(Cl)cc2F)s1)c1ccccn1
III. O=C(Nc1nc(C(F)F)c(S(=O)(=O)Cc2c(F)cccc2F)s1)c1ccccn1
IV. CC(C)c1nc(NC(=O)c2ccccn2)sc1S(=O)(=O)Cc1ccc(Cl)cc1F
Exam item: Write the entries in order, lowest recorded EC50 first. Answer with the labels in sequence, matching the requested order.
Marked response: I, III, II, IV
(I: 49.9 nM, III: 683 nM, II: 1290 nM, IV: 2930 nM)

P. O=C(Nc1nc(C(F)(F)F)c(S(=O)(=O)Cc2ccccc2F)s1)c1ccccn1
Q. Cc1ccccc1CS(=O)(=O)c1sc(NC(=O)c2ccccn2)nc1C
Exam item: Among P and Q , whose measured EC50 is the smaller figure? Provide the label of your selected option as the answer.
Marked response: P
(P: 401 nM, Q: 709 nM)

1. CC(C)c1nc(NC(=O)c2ccccn2)sc1S(=O)(=O)Cc1c(F)cccc1F
2. O=C(Nc1nc(CF)c(S(=O)(=O)Cc2c(F)cccc2F)s1)c1ccccn1
3. CCc1nc(NC(=O)c2ccccn2)sc1S(=O)(=O)Cc1c(F)cccc1F
4. O=C(Nc1nc(C2CC2)c(S(=O)(=O)Cc2ccc(F)cc2F)s1)c1ccccn1
Exam item: Hey, quick one: sort these by EC50, largest value first please. Answer with the labels in sequence, matching the requested order.
Marked response: 4, 2, 1, 3
(4: 1050 nM, 2: 463 nM, 1: 316 nM, 3: 139 nM)

P. CCc1nc(NC(=O)c2ccccn2)sc1S(=O)(=O)Cc1c(C)cc(C)cc1C
Q. Cc1nc(NC(=O)c2ccccn2)sc1S(=O)(=O)Cc1ccc(F)cc1
R. Cc1nc(NC(=O)c2ccccn2)sc1S(=O)(=O)Cc1ccc(F)c(F)c1
S. Cc1nc(NC(=O)c2ccccn2)sc1S(=O)(=O)C(C)c1ccccc1Cl (stereo unspecified)
T. O=C(Nc1nc(C(F)(F)F)c(S(=O)(=O)Cc2ccc(Cl)cc2F)s1)c1ccccn1
Exam item: Hey, quick one: sort these by EC50, largest value first please. Answer with the labels in sequence, matching the requested order.
Marked response: S, Q, R, P, T
(S: 3230 nM, Q: 1510 nM, R: 937 nM, P: 354 nM, T: 181 nM)

P. O=C(Nc1nc(C2CC2)c(S(=O)(=O)Cc2ccccc2F)s1)c1ccccn1
Q. O=C(Nc1ncc(S(=O)(=O)Cc2ccccc2F)s1)c1ccccn1
R. CC(C)c1nc(NC(=O)c2ccccn2)sc1S(=O)(=O)Cc1ccc(Cl)cc1Cl
S. O=C(Nc1ncc(S(=O)(=O)Cc2c(F)cccc2F)s1)c1ccccn1
Exam item: Hey, quick one: sort these by EC50, largest value first please. Answer with the labels in sequence, matching the requested order.
Marked response: R, Q, P, S
(R: 3300 nM, Q: 398 nM, P: 249 nM, S: 170 nM)

a. O=C(Nc1nc(C(F)(F)F)c(S(=O)(=O)Cc2ccc(Cl)cc2Cl)s1)c1ccccn1
b. Cc1nc(NC(=O)c2ccccn2)sc1S(=O)(=O)Cc1ccc(Cl)cc1Cl
Exam item: Among a and b , whose measured EC50 is the smaller figure? Provide the label of your selected option as the answer.
Marked response: b

1. Cc1nc(NC(=O)c2ccccn2)sc1S(=O)(=O)Cc1ccccc1Cl
2. O=C(Nc1nc(C(F)(F)F)c(S(=O)(=O)Cc2ccc(F)cc2F)s1)c1ccccn1
3. Cc1nc(NC(=O)c2ccccn2)sc1S(=O)(=O)Cc1cc(F)ccc1F
Exam item: Write the entries in order, lowest recorded EC50 first. Answer with the labels in sequence, matching the requested order.
Marked response: 1, 3, 2
